Field: logD. Provide a value for each of the compounds that follow.
- condition_info: hexadecane/water, pH 7.4
Answers are plain numbers.

As a guide, the following entries are already answered.
INSERT INTO assay_data (molecule, value_observed) VALUES
  ('c1cnc2cccnc2c1', -0.49),
  ('CC(=O)c1ccccc1', 0.96),
  ('O=C1CCCN1Cc1ccccc1', -0.6),
  ('c1ccc2nccnc2c1', 0.47);

I would be grateful if you could provide logD for each of the following entries.
1. CN1C(=O)c2ccccc2C1=O
2. Clc1ccccn1
3. CN(C)C(=O)c1ccccc1
4. Cn1c(=O)n(C)c2ccccc21

[-0.15, 0.52, -0.98, 0.53]

---

Field: Kp. Provide a value for each of the compounds that follow.
- measurement_description: in vivo
- condition_info: Wistar, rat, brain
Answers are plain numbers.

As a guide, the following entries are already answered.
INSERT INTO assay_data (compound, reported_property, value_observed) VALUES
  ('Cc1nc2n(c(=O)c1CCN1CCC(c3noc4cc(F)ccc34)CC1)CCCC2', 'Kp', 0.955),
  ('CNCCCN1c2ccccc2CCc2ccccc21', 'Kp', 10),
  ('CN1C[C@@H]2c3ccccc3Oc3ccc(Cl)cc3[C@H]2C1', 'Kp', 10.7),
  ('CN1Cc2c(-c3noc(C(C)(O)CO)n3)ncn2-c2cccc(Cl)c2C1=O (centres undefined)', 'Kp', 0.0151),
  ('O=C1CCCN1CCCCN1CCN(c2cc(C(F)(F)F)ccn2)CC1', 'Kp', 1.45);

I would be grateful if you could provide Kp for each of the following entries.
1. CN1CCN2c3ncccc3Cc3ccccc3C2C1 (centres undefined)
2. Cc1cccc2c1Oc1ccccc1[C@@]1(O)CCN(C)C[C@@H]21
3. Cc1cccc2c1Oc1ccccc1[C@@]1(O)CCNC[C@@H]21
4. COc1ccc(CN(CCN(C)C)c2ccccn2)cc1

3.39
6.61
3.31
3.09

---

- condition_info: hexadecane/water, pH 7.4
Threshold rule: logD greater than or equal to -0.1 is 1; below that, 0.

Reference set (8 entries):
INSERT INTO results (molecule, answer_label) VALUES
  ('N#Cc1ccccc1 [BENZONITRILE]', 1),
  ('O=S(=O)(c1ccccc1)c1ccccc1 [(PHENYLSULFONYL)BENZENE]', 1),
  ('Cc1ccc2c(c1)c(C)cc(C)[n+]2[O-]', 0),
  ('[O-][S+](CC1CCCCC1)c1ccccc1 (stereo not drawn)', 1),
  ('Cc1ccc2occc(=O)c2c1', 1),
  ('c1ccc2cnccc2c1 [ISOQUINOLINE]', 1),
  ('CCN1C(=O)Cc2ccccc21', 1),
  ('O=c1ccn(Cc2ccc(-c3ccccc3)cc2)cc1', 0);

Evaluate Clc1ccc2cc[nH]c2c1 : logD at minimum -0.1? 1

Evaluate CC(=O)N(C)c1ccccc1 : logD at minimum -0.1? 0

Evaluate Cn1c(=O)ccc2ccccc21 : logD at minimum -0.1? 0

Evaluate O=c1ccccn1Cc1cccc(Cl)c1 : logD at minimum -0.1? 1

Evaluate CN(C)C(=O)N(C)c1ccccc1 : logD at minimum -0.1? 1

Evaluate c1ccc2nocc2c1 [BENZO[C]ISOXAZOLE] : logD at minimum -0.1? 1

---

Field: logD. Provide a value for each of the molecules that follow.
- measurement_description: physchem
- condition_info: octanol/water, pH 7.4
Give bare numbers.

As a guide, the following entries are already answered.
INSERT INTO measurements (molecule, reported_property, value_observed) VALUES
  ('Clc1ccccn1', 'logD', 1.23),
  ('O=c1ccccn1Cc1cccc(Cl)c1', 'logD', 2.09),
  ('CCN1C(=O)Cc2ccccc21', 'logD', 1.69);

I would be grateful if you could provide logD for each of the following entries.
1. CC(=O)c1ccccc1
2. CC(=O)N(C)c1ccccc1
3. [O-][S+](CC1CCCCC1)c1ccccc1 (configuration not stated)
4. Cc1ccc2c(c1)c(C)cc(C)[n+]2[O-]

1: 1.61; 2: 1; 3: 2.81; 4: 1.71
